tested on: soybean rust fungus (Phakopsora pachyrhizi) having an amino acid substitution of F129L on mitochondrial cytochrome b protein; test: Leaf disk test for control of soybean rust (Test Example 1 / Comparative Test Example 1); assay type: in vivo; details: 3.1 ppm, method of Test Example 1
measured-metric: Lesion area (%)

compound=CNC(=O)/C(Cc1cc(C#CC(C)(C)OC)ccc1C)=N/OC measured_metric="Lesion area (%)" value=0
compound="CO/C=C(/C(=O)OC)c1ccccc1COc1cccc(C(F)(F)F)n1 [picoxystrobin, reference compound]" measured_metric="Lesion area (%)" value=100
compound="COC(=O)N(OC)c1ccccc1COc1ccn(-c2ccc(Cl)cc2)n1 [pyraclostrobin, reference compound]" measured_metric="Lesion area (%)" value=100
compound="CNC(=O)/C(=N/OC)c1ccccc1Oc1ccccc1 [metominostrobin, reference compound]" measured_metric="Lesion area (%)" value=100
compound=COc1nn(C)c(=O)n1Cc1cc(C#C[Si](C)(C)C)ccc1C measured_metric="Lesion area (%)" value=30
compound=CO/C=C(\Oc1cc(/C=C/C2CC2)ccc1C)C(=O)OC measured_metric="Lesion area (%)" value=10
compound="CO/C=C(/C(=O)OC)c1ccccc1Oc1cc(Oc2ccccc2C#N)ncn1 [azoxystrobin, reference compound]" measured_metric="Lesion area (%)" value=100
compound=Cc1ccc(-c2ccccc2)cc1Cn1c(C(F)F)nn(C)c1=O measured_metric="Lesion area (%)" value=0
compound=CO/N=C(\Cc1cc(C#CC(C)(C)C)ccc1C)C(=O)OC measured_metric="Lesion area (%)" value=0
compound="CNC(=O)/C(=N/OC)c1ccccc1COc1cc(C)ccc1C [dimoxystrobin, reference compound]" measured_metric="Lesion area (%)" value=100
compound="CNC(=O)/C(=N/OC)c1ccccc1CO/N=C(C)/C(=N/OC)C(/C)=N/OC [orysastrobin, reference compound]" measured_metric="Lesion area (%)" value=100
compound="COC(=O)NCc1cc(/C(C)=N/OCc2cccc(C)n2)ccc1Cl [pyribencarb, reference compound]" measured_metric="Lesion area (%)" value=100
compound=CO/C=C(\Oc1cc(-c2cccs2)ccc1C)C(=O)OC measured_metric="Lesion area (%)" value=10
compound=CO/C=C(\Oc1cc(-c2ccc(F)cc2)ccc1C)C(=O)OC measured_metric="Lesion area (%)" value=10
